Test: qHTS assay to identify small molecule agonists of the vitamin D receptor (VDR) signaling pathway - cell viability counter screen (AID 743224); further: nearly all actives have a fitted effect of over 50% in size
Conditions: VDR-bla HEK293T viability, CellTiter-Glo luminescence, 16 h; series mostly up to 62.6 µM
Records with an inconclusive call do not appear. The source made the active and inactive calls. The call rests on the fitted dose curve; in most records, active means well fitted cell-killing curve with a large enough effect in the repeat runs; inconclusive means weak or mixed curves, or effect the other way; inactive means no such curve, though single readings can be large or run the other way.
Possible outcomes: 1 = active, -1 = inactive

| compound | answer label |
| --- | --- |
| CCCCCCCCCCCCCC[N+](C)(C)Cc1ccccc1 | 1 |
| CCOC(=O)c1ccc(C2CCC(NC[C@H](O)COc3ccc(O)c(NS(C)(=O)=O)c3)CC2)cc1 (stereo partly specified) | 1 |
| CC(=O)OCC=C(C)C | -1 |
| CCC(C)(CCC(C)C)C(=O)[O][Sn]([CH3])([CH3])[O]C(=O)C(C)(CC)CCC(C)C (stereo unspecified) | -1 |
| CCCCNS(=O)(=O)c1ccc(C)cc1 | -1 |
| CCC(COC(=O)CCS)(COC(=O)CCS)COC(=O)CCS | -1 |
